- System: EGI-1 cells
- ASSAY_PROCEDURE: soft agar colony formation assay, EGI-1 cells
- Format: cell-based
- EXPERIMENTAL_PARAMETERS: EGI-1 cells; pre-determined by dose-response assay
QUANTITY_MEASURED: IC50 (nM)
Lab book: enter the figure in nM, no units written.

Input Cn1c(=O)c2c(ncn2CC(=O)Nc2ccc(-c3ccccc3)nn2)n(C)c1=O [Ex 1] . Output IC50: 27.5

* * *

- System: PA-TU-8988T cells
- ASSAY_PROCEDURE: soft agar colony formation assay, PA-TU-8988T cells
- Format: cell-based
- EXPERIMENTAL_PARAMETERS: PA-TU-8988T cells; pre-determined by dose-response assay
QUANTITY_MEASURED: pIC50
Give only the number. pIC50 is defined as minus log10 of concentration in molar units.

Input Cn1c(=O)c2c(ncn2CC(=O)Nc2ccc(-c3ccccc3)nn2)n(C)c1=O . Output pIC50: 5.96

* * *

- Test system: PA-TU-8988T cells
- ASSAY_PROCEDURE: soft agar colony formation assay, PA-TU-8988T cells
- Format: cell-based
- EXPERIMENTAL_PARAMETERS: Homo sapiens, PaTu 8988t; PA-TU-8988T cells; pre-determined by dose-response assay
QUANTITY_MEASURED: pIC50
Give only the number. pIC50 is defined as minus log10 of concentration in molar units.

Input O=C(c1cc(Cc2n[nH]c(=O)c3ccccc23)ccc1F)N1CCN(C(=O)C2CC2)CC1 [Olaparib, reference compound] . Output pIC50: 6.00

* * *

What pIC50 was measured for each of the following?
- System: TFK-1 cells
- ASSAY_PROCEDURE: soft agar colony formation assay, TFK-1 cells
- Format: cell-based
- EXPERIMENTAL_PARAMETERS: TFK-1 cells; pre-determined by dose-response assay
- Description: The IC50 and EC50 values for each combination partner (a) and (b) with the specific cell lines are determined from the response plot. A dose-response assay for each combination partner and the combination at different concentrations based on the IC50 values of each combination partner was performed. Computed EC50-EC95 values were then generated by a software (as disclosed herein) based on the drug concentration and the respective colony growth numbers. 6. […]
Give only the number. pIC50 is defined as minus log10 of concentration in molar units.

Form: item Cn1c(=O)c2c(ncn2CC(=O)Nc2ccc(-c3ccccc3)nn2)n(C)c1=O [Ex 1] ; test system TFK-1 cells; pIC50: 4.92

Form: item O=C(c1cc(Cc2n[nH]c(=O)c3ccccc23)ccc1F)N1CCN(C(=O)C2CC2)CC1 [Olaparib, reference compound] ; test system TFK-1 cells; pIC50: 4.74

* * *

- Test system: CFPAC-1 cells
- ASSAY_PROCEDURE: soft agar colony formation assay, CFPAC-1 cells
- Format: cell-based
- EXPERIMENTAL_PARAMETERS: CFPAC-1 cells; pre-determined by dose-response assay
QUANTITY_MEASURED: IC50 (µM)
Lab book: enter the figure in µM, no units written.

Form: item Cn1c(=O)c2c(ncn2CC(=O)Nc2ccc(-c3ccccc3)nn2)n(C)c1=O ; test system CFPAC-1 cells; IC50: 0.027

* * *

- Tested on: CFPAC-1 cells
- ASSAY_PROCEDURE: soft agar colony formation assay, CFPAC-1 cells
- Format: cell-based
- EXPERIMENTAL_PARAMETERS: Homo sapiens; CFPAC-1 cells; pre-determined by dose-response assay
QUANTITY_MEASURED: pIC50
Give only the number. pIC50 is defined as minus log10 of concentration in molar units.

Input O=C(c1cc(Cc2n[nH]c(=O)c3ccccc23)ccc1F)N1CCN(C(=O)C2CC2)CC1 [Olaparib, reference compound] . Output pIC50: 5.20
